Biological target: Deoxyuridine 5'-triphosphate nucleotidohydrolase, mitochondrial (Homo sapiens)
Sequence (P33316 whole entry): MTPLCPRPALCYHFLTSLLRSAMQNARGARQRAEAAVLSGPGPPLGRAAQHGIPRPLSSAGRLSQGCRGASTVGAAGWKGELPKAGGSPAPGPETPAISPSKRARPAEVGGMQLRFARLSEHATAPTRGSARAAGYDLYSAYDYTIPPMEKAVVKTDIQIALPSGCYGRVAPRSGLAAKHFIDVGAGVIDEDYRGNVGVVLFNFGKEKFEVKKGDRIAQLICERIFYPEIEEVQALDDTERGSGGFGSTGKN
Catalogue of compounds with associated Ki
measured.attribute: Ki

- compound: "CCNC(=O)C(CCO[Si](c1ccccc1)(c1ccccc1)C(C)(C)C)Cn1ccc(=O)[nH]c1=O (racemic)"
  value: "> 100 µM"
- compound: "O=C(O)C(CCNC(c1ccccc1)(c1ccccc1)c1ccccc1)Cn1ccc(=O)[nH]c1=O (racemic)"
  value: "90 µM"
- compound: "O=C(C(CCOC(c1ccccc1)(c1ccccc1)c1ccccc1)Cn1ccc(=O)[nH]c1=O)N1CCOCC1 (racemic)"
  value: "> 100 µM"
- compound: "CCOC(=O)CCNC(=O)C(CCOC(c1ccccc1)(c1ccccc1)c1ccccc1)Cn1ccc(=O)[nH]c1=O (racemic)"
  value: "> 100 µM"
